The measured values listed here are drawn from paper PMC12143348.

assay: Solubility of PFQX(Dye)s in HBS; type: physicochemical; conditions: aqueous buffer; dissolved in HBS
OUTCOME_MEASURE: solubility

query: What value of solubility has been recorded for this entry: N=c1ccc2c(-c3ccc(C(=O)NCc4ccn(-c5cc6c(cc5C(F)(F)F)[nH]c(=O)c(=O)n6CC(=O)O)c4)cc3C(=O)O)c3ccc(N)c(S(=O)(=O)O)c3oc-2c1S(=O)(=O)O
result: > 1470 µM

###

target: native AMPARs; experiment: Concentration-dependent binding of PFQX1(AF488) to AMPARs in primary cultured hippocampal neurons; set-up: species or system mouse; conditions: cultured hippocampal neurons after cLTP stimulation; n = 3; read-out: Kd value after cLTP
OUTCOME_MEASURE: Kd (nM)
Answer format: numeric, nM implied, no suffix.

query: What value of Kd has been recorded for this entry: N=c1ccc2c(-c3ccc(C(=O)NCc4ccn(-c5cc6c(cc5C(F)(F)F)[nH]c(=O)c(=O)n6CC(=O)O)c4)cc3C(=O)O)c3ccc(N)c(S(=O)(=O)O)c3oc-2c1S(=O)(=O)O
result: 72.4
